# experimentSummary: Stability of a TCO compound under various conditions (HPLC-MS/PDA and/or GC-MS)
# Type: physicochemical
# experimentalConditions: in PBS buffer, 20° C.; read-out: Stability of TCO: t1/2
measure: half-life at 2.3 mM (h)
I only need the number, in h, no unit after it.

{"compound": "NC1CCCC/C=C/C1NC(=O)Oc1ccccc1 (centres unmarked)", "readingUnit": "h", "endpointResult": 29}

Okay, next one:
Inquiry: // half-life at 2.3 mM lookup, key: NC1/C=C/CCCCC1NC(=O)Oc1ccccc1 (centres unmarked)
Reply text: 65

* * *

# experimentSummary: Stability of a TCO compound under various conditions (HPLC-MS/PDA and/or GC-MS)
# Type: physicochemical
# experimentalConditions: 0.1M NH4OAc buffer, pH = 9.0, 20° C.; read-out: Stability of TCO: t1/2
measure: half-life at 2.3 mM (h)
I only need the number, in h, no unit after it.

Inquiry: // half-life at 2.3 mM lookup, key: N[C@H]1CC/C=C/CCC1NC(=O)Oc1ccccc1 (stereo partly shown)
Reply text: 5.3
